System: B16-F10
Experiment: Cytotoxicity against B16F10 cells at 0.1 uM after 48 hrs
Assay type: functional
Conditions: Mus musculus, B16-F10, 48 h
Recorded inhibition at 0.1 µM for the following molecules
Give a bare numeral; the unit % is implied.

Examples from the recorded data:
Q) For the molecule C[C@@H]1CC[C@@H](c2ccoc2)N2C[C@@]3(CC[C@@H]12)CS[C@@]1(CC[C@H]2[C@H](C)CC[C@@H](c4ccoc4)N2[C@@H]1O)C3 , what inhibition at 0.1 µM is on record?
A) 10.3

Q) Another molecule: C[C@@H]1CC[C@@H](c2ccoc2)N2[C@H]1CC[C@@]1(CS[C@@]3(CC[C@H]4[C@H](C)CC[C@@H](c5ccoc5)N4[C@@H]3O)C1)[C@H]2O
A) -8

Q) Thanks! And C[C@@H]1CC[C@@H](c2ccoc2)N2C[C@]3(CC[C@@H]12)CS[C@]1(CC[C@H]2[C@H](C)CC[C@@H](c4ccoc4)N2C1)C3 [NEOTHIOBINUPHARIDINE] ?
A) 4.4

Q) Would you kindly repeat that for CC[C@@]1(O)C(=O)OCc2c1cc1n(c2=O)Cc2cc3ccccc3nc2-1 [CAMPTOTHECIN] ?
A) 39.1

Further cases:
Q) Endpoint output: inhibition at 0.1 µM of C[C@@H]1CC[C@@H](c2ccoc2)N2C[C@@]3(CC[C@@H]12)CS[C@]1(CC[C@H]2[C@H](C)CC[C@@H](c4ccoc4)N2[C@@H]1O)C3 [6-HYDROXYTHIONUPHLUTINE B] . Value?
A) 0.3
